Values compiled from patent US20120245137A1.

target: Human Cav 2.2 channels (Homo sapiens, UniProt Q00975); experiment: Fluorescent assay for CaV2.2 channels using potassium depolarization (VIPR/FLIPR); type: cell-based; conditions: FLIPR data; ratio closed/inactivated IC50
Sequence (Q00975 whole entry): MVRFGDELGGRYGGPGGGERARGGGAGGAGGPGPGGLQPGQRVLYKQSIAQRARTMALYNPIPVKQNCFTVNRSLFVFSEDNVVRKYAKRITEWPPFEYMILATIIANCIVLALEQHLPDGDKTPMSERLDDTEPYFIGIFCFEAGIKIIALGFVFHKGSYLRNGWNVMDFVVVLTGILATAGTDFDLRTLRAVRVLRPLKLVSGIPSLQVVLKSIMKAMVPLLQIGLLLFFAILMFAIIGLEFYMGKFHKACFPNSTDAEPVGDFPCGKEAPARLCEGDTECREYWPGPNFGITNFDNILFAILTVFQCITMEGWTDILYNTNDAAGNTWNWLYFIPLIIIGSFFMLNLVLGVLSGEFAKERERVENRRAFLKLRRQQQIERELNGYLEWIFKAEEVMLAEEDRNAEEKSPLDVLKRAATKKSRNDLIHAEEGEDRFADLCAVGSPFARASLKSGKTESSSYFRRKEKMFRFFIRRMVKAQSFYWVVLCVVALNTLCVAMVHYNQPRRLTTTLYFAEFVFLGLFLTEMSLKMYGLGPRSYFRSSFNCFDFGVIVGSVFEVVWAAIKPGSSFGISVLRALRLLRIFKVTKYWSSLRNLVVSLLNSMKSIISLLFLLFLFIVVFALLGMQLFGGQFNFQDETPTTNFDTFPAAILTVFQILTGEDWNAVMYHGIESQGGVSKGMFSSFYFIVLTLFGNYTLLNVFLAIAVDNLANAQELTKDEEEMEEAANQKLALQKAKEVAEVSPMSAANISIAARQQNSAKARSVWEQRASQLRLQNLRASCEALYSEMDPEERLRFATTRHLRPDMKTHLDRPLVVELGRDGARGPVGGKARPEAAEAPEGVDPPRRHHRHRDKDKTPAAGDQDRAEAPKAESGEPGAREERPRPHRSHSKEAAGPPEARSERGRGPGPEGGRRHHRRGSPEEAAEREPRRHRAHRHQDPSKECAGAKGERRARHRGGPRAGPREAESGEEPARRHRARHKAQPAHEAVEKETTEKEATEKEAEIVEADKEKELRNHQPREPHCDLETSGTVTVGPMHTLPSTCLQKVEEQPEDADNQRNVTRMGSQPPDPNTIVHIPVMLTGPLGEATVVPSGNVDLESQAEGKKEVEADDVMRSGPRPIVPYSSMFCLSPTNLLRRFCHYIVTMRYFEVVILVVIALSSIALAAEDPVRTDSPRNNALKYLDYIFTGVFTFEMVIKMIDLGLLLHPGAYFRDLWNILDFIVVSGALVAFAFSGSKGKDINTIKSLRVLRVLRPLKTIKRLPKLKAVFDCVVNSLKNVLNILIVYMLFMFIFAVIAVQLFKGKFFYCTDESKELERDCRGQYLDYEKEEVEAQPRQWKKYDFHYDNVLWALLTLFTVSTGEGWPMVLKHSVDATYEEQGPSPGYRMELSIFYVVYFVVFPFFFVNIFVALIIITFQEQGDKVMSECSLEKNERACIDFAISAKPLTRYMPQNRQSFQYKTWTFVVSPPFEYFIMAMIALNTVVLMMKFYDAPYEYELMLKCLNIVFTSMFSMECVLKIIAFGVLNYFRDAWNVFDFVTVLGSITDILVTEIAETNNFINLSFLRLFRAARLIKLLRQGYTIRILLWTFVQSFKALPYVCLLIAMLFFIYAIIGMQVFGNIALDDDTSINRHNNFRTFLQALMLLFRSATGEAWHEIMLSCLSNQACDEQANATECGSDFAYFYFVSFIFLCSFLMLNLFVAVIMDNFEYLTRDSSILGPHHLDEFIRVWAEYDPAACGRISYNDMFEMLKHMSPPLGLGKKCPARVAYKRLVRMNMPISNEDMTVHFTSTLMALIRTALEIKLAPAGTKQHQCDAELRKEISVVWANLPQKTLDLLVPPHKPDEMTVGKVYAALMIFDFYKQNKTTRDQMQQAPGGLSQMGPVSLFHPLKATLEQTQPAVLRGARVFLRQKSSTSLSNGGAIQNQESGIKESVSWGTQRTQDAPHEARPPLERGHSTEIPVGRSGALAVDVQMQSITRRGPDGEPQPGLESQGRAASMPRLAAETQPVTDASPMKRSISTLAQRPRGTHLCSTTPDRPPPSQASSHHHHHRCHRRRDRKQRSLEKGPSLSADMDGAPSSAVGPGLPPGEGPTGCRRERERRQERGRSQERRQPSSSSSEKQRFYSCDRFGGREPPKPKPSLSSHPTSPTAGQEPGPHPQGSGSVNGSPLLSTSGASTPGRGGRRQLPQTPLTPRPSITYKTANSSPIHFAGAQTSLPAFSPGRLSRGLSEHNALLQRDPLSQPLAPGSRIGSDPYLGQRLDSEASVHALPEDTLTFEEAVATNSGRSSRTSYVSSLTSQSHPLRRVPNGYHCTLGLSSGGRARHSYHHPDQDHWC
Sequence (P54289 25-1103 partner): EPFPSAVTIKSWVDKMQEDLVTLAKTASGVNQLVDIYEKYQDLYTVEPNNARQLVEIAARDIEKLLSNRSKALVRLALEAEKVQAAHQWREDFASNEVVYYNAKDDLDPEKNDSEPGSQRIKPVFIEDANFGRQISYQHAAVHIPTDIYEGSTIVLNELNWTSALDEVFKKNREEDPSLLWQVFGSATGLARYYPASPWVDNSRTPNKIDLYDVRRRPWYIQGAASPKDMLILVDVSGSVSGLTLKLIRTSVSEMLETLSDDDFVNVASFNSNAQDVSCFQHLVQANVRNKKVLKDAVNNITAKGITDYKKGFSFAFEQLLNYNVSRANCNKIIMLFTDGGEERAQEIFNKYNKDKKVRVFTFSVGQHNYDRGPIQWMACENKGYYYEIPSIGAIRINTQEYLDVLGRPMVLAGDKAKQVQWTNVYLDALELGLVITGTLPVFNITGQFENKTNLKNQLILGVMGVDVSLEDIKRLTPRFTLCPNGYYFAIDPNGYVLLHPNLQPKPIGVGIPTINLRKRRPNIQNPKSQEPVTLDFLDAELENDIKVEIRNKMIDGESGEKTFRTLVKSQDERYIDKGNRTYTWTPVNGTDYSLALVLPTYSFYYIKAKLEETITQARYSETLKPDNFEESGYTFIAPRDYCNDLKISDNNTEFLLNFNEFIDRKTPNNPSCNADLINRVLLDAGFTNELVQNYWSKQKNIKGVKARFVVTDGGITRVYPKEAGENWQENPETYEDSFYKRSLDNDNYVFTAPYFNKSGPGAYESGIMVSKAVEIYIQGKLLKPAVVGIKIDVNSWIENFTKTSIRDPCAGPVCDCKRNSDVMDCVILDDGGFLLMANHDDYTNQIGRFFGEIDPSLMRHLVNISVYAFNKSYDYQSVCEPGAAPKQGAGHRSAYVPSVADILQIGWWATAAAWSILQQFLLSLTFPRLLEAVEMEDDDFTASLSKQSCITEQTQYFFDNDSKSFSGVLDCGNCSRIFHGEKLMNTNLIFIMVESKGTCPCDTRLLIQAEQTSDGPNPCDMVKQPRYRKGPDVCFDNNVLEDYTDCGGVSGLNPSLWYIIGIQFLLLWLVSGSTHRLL
Sequence (P54284 whole entry partner): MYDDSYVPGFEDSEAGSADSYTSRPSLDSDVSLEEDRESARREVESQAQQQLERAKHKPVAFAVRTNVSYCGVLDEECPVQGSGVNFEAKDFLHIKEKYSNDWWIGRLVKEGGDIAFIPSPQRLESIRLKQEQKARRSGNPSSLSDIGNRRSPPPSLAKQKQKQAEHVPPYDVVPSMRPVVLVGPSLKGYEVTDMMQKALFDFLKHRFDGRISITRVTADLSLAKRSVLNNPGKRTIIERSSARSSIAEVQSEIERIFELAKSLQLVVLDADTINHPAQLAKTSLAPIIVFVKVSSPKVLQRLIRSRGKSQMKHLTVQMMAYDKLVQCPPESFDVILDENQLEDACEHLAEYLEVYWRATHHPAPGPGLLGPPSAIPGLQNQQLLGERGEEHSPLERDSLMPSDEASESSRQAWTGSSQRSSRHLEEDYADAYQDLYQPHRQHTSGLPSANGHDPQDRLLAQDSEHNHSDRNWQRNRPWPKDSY
Reported Endpoint: CAv2.2 IC50 Ratio closed/inact.

In the examples that follow, each entry is paired with its recorded CAv2.2 IC50 Ratio closed/inact..
compound=CC(C)(C[C@H]1C[C@H](NC(=O)c2ccc(Cl)cc2S(C)(=O)=O)C1)S(=O)(=O)c1cccc(C(F)(F)F)c1 assayed_system="Human Cav 2.2 channels (Homo sapiens, UniProt Q00975)" quantitative_result=31.4
compound=CC(C)(C[C@H]1C[C@H](NC(=O)c2ncc(C(F)(F)F)cc2S(C)(=O)=O)C1)S(=O)(=O)c1cccc(C(F)(F)F)c1 assayed_system="Human Cav 2.2 channels (Homo sapiens, UniProt Q00975)" quantitative_result=17.6
compound="CC(C)(C1CC(CNC(=O)c2ccnc(C(F)(F)F)c2)C1)S(=O)(=O)c1cccc(C(F)(F)F)c1 (centres unmarked)" assayed_system="Human Cav 2.2 channels (Homo sapiens, UniProt Q00975)" quantitative_result=7.4
compound=O=C(NC[C@H]1C[C@H](S(=O)(=O)c2cc(F)cc(C(F)(F)F)c2)C1)c1ccc(C(F)(F)F)nc1 assayed_system="Human Cav 2.2 channels (Homo sapiens, UniProt Q00975)" quantitative_result=6.1

[P] CC(C)([C@H]1C[C@@H](NC(=O)c2ncc(C(F)(F)F)cc2S(C)(=O)=O)C1)S(=O)(=O)c1cccc(OC(F)(F)F)c1
[Q] CC(C)([C@H]1C[C@@H](NC(=O)CC2(N)CCCCC2)C1)S(=O)(=O)c1cc(F)cc(C(F)(F)F)c1
Prompt line: Out of P and Q , name the one with the higher CAv2.2 IC50 Ratio closed/inact.. Respond using the label that marks the chosen record.
Response line: P

[a] CC(C)([C@H]1C[C@H](NC(=O)c2cc(C(F)(F)F)n[nH]2)C1)S(=O)(=O)c1cccc(OC(F)(F)F)c1
[b] O=C(NC[C@H]1C[C@H](S(=O)(=O)c2cc(F)cc(C(F)(F)F)c2)C1)c1ccc(OCC(F)(F)F)nc1
Prompt line: Of a and b , whose reported CAv2.2 IC50 Ratio closed/inact. is numerically smaller? Respond using the label that marks the chosen record.
Response line: b

[1] CC(C)([C@H]1C[C@H](NC(=O)c2ccc(OCC(F)(F)F)nc2)C1)S(=O)(=O)c1cccc(C(F)(F)F)c1
[2] CC(C)(C1CC(CNC(=O)c2ccc(C(F)(F)F)cc2S(C)(=O)=O)C1)S(=O)(=O)c1cccc(C(F)(F)F)c1 (centres unmarked)
[3] O=S(=O)(c1cccc(OC(F)(F)F)c1)[C@H]1C[C@@H](CNc2ccnc(C(F)(F)F)n2)C1
[4] O=C(NC[C@H]1C[C@H](S(=O)(=O)c2cccc(C(F)(F)F)c2)C1)c1ccc(C(F)(F)F)nc1
Prompt line: Put the entries in order of CAv2.2 IC50 Ratio closed/inact., starting with the largest number. Your task in answering is to list the labels in the requested order.
Response line: 4, 2, 1, 3
